Listed next: entries and their corresponding ALP.
Organism: Rattus norvegicus
EXPERIMENT: Open TG-GATES - Regimen: Single
Type: toxicity, organism-based, Sprague-Dawley
Design: regimen Single, gender Male, age 6 weeks
EXPERIMENTAL CONTEXT: in vivo, po, 0 mg/kg, 24 h, tissue Plasma, route gavage, dose level Control
ATTRIBUTE MEASURED: ALP (IU/L)

COMPOUND: CN1C(=O)OC(C)(C)C1=O
EXPERIMENTAL VALUE: 1802.2
//
COMPOUND: CCc1oc2ccccc2c1C(=O)c1cc(I)c(O)c(I)c1
EXPERIMENTAL VALUE: 1056.6
//
COMPOUND: C#C[C@]1(O)CC[C@H]2[C@@H]3CCc4cc(O)ccc4[C@H]3CC[C@@]21C
EXPERIMENTAL VALUE: 1908.8
//
COMPOUND: CC(C)C(=O)Nc1ccc([N+](=O)[O-])c(C(F)(F)F)c1 [FLUTAMIDE]
EXPERIMENTAL VALUE: 878.8
//
COMPOUND: C[C@]12CCC(=O)C=C1CC[C@@H]1[C@@H]2CC[C@@]2(C)[C@H]1CC[C@]2(C)O
EXPERIMENTAL VALUE: 1818.4
//
COMPOUND: O=C(O)c1cccnc1
EXPERIMENTAL VALUE: 1844
//
COMPOUND: O=C(N[C@H](CO)[C@H](O)c1ccc([N+](=O)[O-])cc1)C(Cl)Cl
EXPERIMENTAL VALUE: 1650.8
//
COMPOUND: CC(=N)S [THIOACETAMIDE]
EXPERIMENTAL VALUE: 883
//
COMPOUND: CC(C)(S)[C@@H](N)C(=O)O
EXPERIMENTAL VALUE: 1418.8
//
COMPOUND: CCC(C)(C)C(=O)O[C@H]1C[C@@H](C)C=C2C=C[C@H](C)[C@H](CC[C@@H]3C[C@@H](O)CC(=O)O3)[C@H]21
EXPERIMENTAL VALUE: 887.6

----------
Species on record: Rattus norvegicus
EXPERIMENT: Open TG-GATES - Regimen: Daily Repeat
Assay type: toxicity, organism-based, Sprague-Dawley
Set-up: regimen Daily Repeat, gender Male, age 6 weeks
EXPERIMENTAL CONTEXT: in vivo, po, 100 mg/kg, […], tissue Plasma, route gavage, dose level Low, time 14 day

COMPOUND: CCN1CCCC1CNC(=O)c1cc(S(N)(=O)=O)ccc1OC (centres undefined) [SULPIRIDE]
gamma-GTP / IU/L: 1
//
COMPOUND: CC(C)(S)[C@@H](N)C(=O)O
gamma-GTP / IU/L: 1
//
COMPOUND: O=C(O)c1cccnc1
gamma-GTP / IU/L: 1.4
//
COMPOUND: O=C(N[C@H](CO)[C@H](O)c1ccc([N+](=O)[O-])cc1)C(Cl)Cl
gamma-GTP / IU/L: 1

----------
Species: Rattus norvegicus
EXPERIMENT: Open TG-GATES - Regimen: Daily Repeat
Assay type: toxicity, organism-based, Sprague-Dawley
Design: regimen Daily Repeat, gender Male, age 6 weeks
EXPERIMENTAL CONTEXT: in vivo, po, 100 mg/kg, […], tissue Blood, route gavage, dose level Low, time 28 day

MOLECULE: O=C(O)c1cccnc1
Fbg / mg/dL: 330.4
--
MOLECULE: CCN1CCCC1CNC(=O)c1cc(S(N)(=O)=O)ccc1OC (centres undefined) [SULPIRIDE]
Fbg / mg/dL: 274.2
--
MOLECULE: O=C(N[C@H](CO)[C@H](O)c1ccc([N+](=O)[O-])cc1)C(Cl)Cl
Fbg / mg/dL: 278
--
MOLECULE: CC(C)(S)[C@@H](N)C(=O)O
Fbg / mg/dL: 313

----------
Organism: Rattus norvegicus
EXPERIMENT: Open TG-GATES - Regimen: Single
Format: toxicity, organism-based, Sprague-Dawley
Design: regimen Single, gender Male, age 6 weeks
EXPERIMENTAL CONTEXT: in vivo, po, 0 mg/kg, 6 h, route gavage, dose level Control

COMPOUND: CC(=O)Oc1cc(C(C)C)c(OCCN(C)C)cc1C
TERMINAL_BW: 204.4 g

COMPOUND: Nc1nc(N)c2nc(-c3ccccc3)c(N)nc2n1
TERMINAL_BW: 211.8 g

COMPOUND: C[C@]12CCC(=O)C=C1CC[C@@H]1[C@@H]2CC[C@@]2(C)[C@H]1CC[C@]2(C)O
TERMINAL_BW: 202.9 g

COMPOUND: C[C@](N)(Cc1ccc(O)c(O)c1)C(=O)O
TERMINAL_BW: 187.9 g

COMPOUND: CCN1CCCC1CNC(=O)c1cc(S(N)(=O)=O)ccc1OC (stereo unspecified) [SULPIRIDE]
TERMINAL_BW: 198.5 g

COMPOUND: CC(=N)S [THIOACETAMIDE]
TERMINAL_BW: 185.6 g

----------
Listed next: entries and their corresponding TC.
Species on record: Rattus norvegicus
EXPERIMENT: Open TG-GATES - Regimen: Daily Repeat
Assay type: toxicity, organism-based, Sprague-Dawley
Parameters: regimen Daily Repeat, gender Male, age 6 weeks
EXPERIMENTAL CONTEXT: in vivo, po, 100 mg/kg, […], tissue Plasma, route gavage, dose level Low, time 7 day

COMPOUND: O=C(N[C@H](CO)[C@H](O)c1ccc([N+](=O)[O-])cc1)C(Cl)Cl [CHLORAMPHENICOL]
TC [mg/dL]: 82.6

COMPOUND: CC(C)(S)[C@@H](N)C(=O)O [PENICILLAMINE]
TC [mg/dL]: 85.2

COMPOUND: O=C(O)c1cccnc1 [NIACIN]
TC [mg/dL]: 66.6

COMPOUND: CCN1CCCC1CNC(=O)c1cc(S(N)(=O)=O)ccc1OC (centres undefined) [SULPIRIDE]
TC [mg/dL]: 70.4

----------
Species on record: Rattus norvegicus
EXPERIMENT: Open TG-GATES - Regimen: Single
Assay type: toxicity, organism-based, Sprague-Dawley
Parameters: regimen Single, gender Male, age 6 weeks
EXPERIMENTAL CONTEXT: in vivo, po, 0 mg/kg, 6 h, tissue Blood, route gavage, dose level Control

MOLECULE: CC(C)(S)[C@@H](N)C(=O)O [PENICILLAMINE]
Eos / %: 1

MOLECULE: Nc1nc(N)c2nc(-c3ccccc3)c(N)nc2n1
Eos / %: 0.4

MOLECULE: O=C(O)c1cccnc1 [NIACIN]
Eos / %: 0.8

MOLECULE: Oc1ncnc2[nH]ncc12 [ALLOPURINOL]
Eos / %: 1

MOLECULE: CC(=O)Oc1cc(C(C)C)c(OCCN(C)C)cc1C [MOXISYLYTE]
Eos / %: 1

MOLECULE: C[C@](N)(Cc1ccc(O)c(O)c1)C(=O)O [METHYLDOPA]
Eos / %: 1

MOLECULE: CN1C(=O)OC(C)(C)C1=O [TRIMETHADIONE]
Eos / %: 1

MOLECULE: C[C@]12CCC(=O)C=C1CC[C@@H]1[C@@H]2CC[C@@]2(C)[C@H]1CC[C@]2(C)O [METHYLTESTOSTERONE]
Eos / %: 0.8

MOLECULE: CCc1oc2ccccc2c1C(=O)c1cc(I)c(O)c(I)c1 [BENZIODARONE]
Eos / %: 0.8

MOLECULE: C#C[C@]1(O)CC[C@H]2[C@@H]3CCc4cc(O)ccc4[C@H]3CC[C@@]21C [ETHINYL ESTRADIOL]
Eos / %: 1

MOLECULE: CC(C)C(=O)Nc1ccc([N+](=O)[O-])c(C(F)(F)F)c1 [FLUTAMIDE]
Eos / %: 0.6

MOLECULE: CCN1CCCC1CNC(=O)c1cc(S(N)(=O)=O)ccc1OC (stereo unspecified) [SULPIRIDE]
Eos / %: 0.8

MOLECULE: CCSCC[C@H](N)C(=O)O [ETHIONINE]
Eos / %: 1

MOLECULE: CC(=N)S [THIOACETAMIDE]
Eos / %: 1

MOLECULE: CCC(C)(C)C(=O)O[C@H]1C[C@@H](C)C=C2C=C[C@H](C)[C@H](CC[C@@H]3C[C@@H](O)CC(=O)O3)[C@H]21 [SIMVASTATIN]
Eos / %: 1

MOLECULE: O=C(N[C@H](CO)[C@H](O)c1ccc([N+](=O)[O-])cc1)C(Cl)Cl [CHLORAMPHENICOL]
Eos / %: 0.8

----------
Species on record: Rattus norvegicus
EXPERIMENT: Open TG-GATES - Regimen: Single
Assay type: toxicity, organism-based, Sprague-Dawley
Parameters: regimen Single, gender Male, age 6 weeks
EXPERIMENTAL CONTEXT: in vivo, po, 0 mg/kg, 24 h, tissue Plasma, route gavage, dose level Control

COMPOUND: C[C@](N)(Cc1ccc(O)c(O)c1)C(=O)O [METHYLDOPA]
UOM: mg/dL
TG: 58.2

COMPOUND: CC(=O)Oc1cc(C(C)C)c(OCCN(C)C)cc1C [MOXISYLYTE]
UOM: mg/dL
TG: 89

COMPOUND: CCN1CCCC1CNC(=O)c1cc(S(N)(=O)=O)ccc1OC (stereo not given) [SULPIRIDE]
UOM: mg/dL
TG: 96.8

COMPOUND: CCC(C)(C)C(=O)O[C@H]1C[C@@H](C)C=C2C=C[C@H](C)[C@H](CC[C@@H]3C[C@@H](O)CC(=O)O3)[C@H]21 [SIMVASTATIN]
UOM: mg/dL
TG: 76.6

COMPOUND: CCSCC[C@H](N)C(=O)O [ETHIONINE]
UOM: mg/dL
TG: 99.2

COMPOUND: Oc1ncnc2[nH]ncc12 [ALLOPURINOL]
UOM: mg/dL
TG: 99

COMPOUND: CC(C)(S)[C@@H](N)C(=O)O [PENICILLAMINE]
UOM: mg/dL
TG: 115.6

COMPOUND: C[C@]12CCC(=O)C=C1CC[C@@H]1[C@@H]2CC[C@@]2(C)[C@H]1CC[C@]2(C)O [METHYLTESTOSTERONE]
UOM: mg/dL
TG: 114.6

COMPOUND: CN1C(=O)OC(C)(C)C1=O [TRIMETHADIONE]
UOM: mg/dL
TG: 92.2

COMPOUND: Nc1nc(N)c2nc(-c3ccccc3)c(N)nc2n1
UOM: mg/dL
TG: 109.8

COMPOUND: CC(=N)S [THIOACETAMIDE]
UOM: mg/dL
TG: 113.2

COMPOUND: O=C(O)c1cccnc1 [NIACIN]
UOM: mg/dL
TG: 104

COMPOUND: CC(C)C(=O)Nc1ccc([N+](=O)[O-])c(C(F)(F)F)c1 [FLUTAMIDE]
UOM: mg/dL
TG: 62.6

COMPOUND: CCc1oc2ccccc2c1C(=O)c1cc(I)c(O)c(I)c1 [BENZIODARONE]
UOM: mg/dL
TG: 109.6

COMPOUND: O=C(N[C@H](CO)[C@H](O)c1ccc([N+](=O)[O-])cc1)C(Cl)Cl [CHLORAMPHENICOL]
UOM: mg/dL
TG: 72.6
